# target.entity: c-Src (Homo sapiens, UniProt P12931)
# Sequence (P12931 whole entry): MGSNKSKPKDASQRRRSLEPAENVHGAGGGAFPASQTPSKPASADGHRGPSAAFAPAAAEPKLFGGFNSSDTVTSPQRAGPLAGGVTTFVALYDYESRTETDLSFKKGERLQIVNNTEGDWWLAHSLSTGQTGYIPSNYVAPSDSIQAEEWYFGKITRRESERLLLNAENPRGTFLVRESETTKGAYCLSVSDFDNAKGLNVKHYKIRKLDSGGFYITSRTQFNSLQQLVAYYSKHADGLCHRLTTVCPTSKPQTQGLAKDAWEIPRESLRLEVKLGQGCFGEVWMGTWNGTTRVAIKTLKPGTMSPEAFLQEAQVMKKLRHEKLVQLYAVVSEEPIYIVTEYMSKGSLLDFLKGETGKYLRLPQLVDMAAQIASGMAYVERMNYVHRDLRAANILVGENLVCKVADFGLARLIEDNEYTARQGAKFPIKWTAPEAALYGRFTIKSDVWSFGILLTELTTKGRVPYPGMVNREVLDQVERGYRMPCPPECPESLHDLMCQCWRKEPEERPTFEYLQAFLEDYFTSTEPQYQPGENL
# test.method.notes: Kinase assay in vitro
# Type: biochemical
# assay.conditions: recombinant protein, 33P-ATP
recorded.endpoint: c-Src IC50 range (in words)

>>> measured_value("Cl.Cl.O=C1Nc2cc(Br)ccc2/C1=C1/Nc2ccccc2/C1=N\\OCCN1CCNCC1 [compound 22]")
"picomolar"
>>> measured_value("CN(CCO/N=C1/C(=C2/C(=O)Nc3cc(Br)ccc32)Nc2ccccc21)CC(O)CO.Cl (centres unmarked) [compound 18]")
"picomolar"
>>> measured_value("Cl.O=C1Nc2cc(Br)ccc2/C1=C1/Nc2ccccc2/C1=N\\OCCN1CCCC1 [compound 20]")
"nanomolar"
>>> measured_value("O=C1Nc2cc(Br)ccc2/C1=C1/Nc2ccccc2/C1=N\\OCCN1CCN(CCOCCO)CC1 [compound 29]")
"picomolar"
>>> measured_value("COCCN1CCN(CCO/N=C2/C(=C3/C(=O)Nc4cc(Br)ccc43)Nc3ccccc32)CC1 [compound 27]")
"nanomolar"
>>> measured_value("CN(CCO/N=C1/C(=C2/C(=O)Nc3cc(Br)ccc32)Nc2ccccc21)CC(O)CO (centres unmarked) [compound 17]")
"picomolar"
>>> measured_value("COCCN1CCN(CCO/N=C2/C(=C3/C(=O)Nc4cc(Br)ccc43)Nc3ccccc32)CC1.Cl.Cl [compound 28]")
"nanomolar"
>>> measured_value("O=C1Nc2cc(Br)ccc2/C1=C1/Nc2ccccc2/C1=N\\OCCN1CCCC1 [compound 19]")
"nanomolar"

---

# System: KCL-22 and T315I KCL-22 CML cell lines
# test.method.notes: Biological screening at 1 μM on the two CML cell lines
# Type: cell-based, human
recorded.endpoint: cytotoxic activity in the screening (in words)

>>> measured_value("O=C1Nc2ccccc2/C1=C1/Nc2cc(Br)ccc2/C1=N\\O")
"inactive"
>>> measured_value("O=C1Nc2ccccc2/C1=C1/Nc2cc(Br)ccc2C1=O")
"inactive"
>>> measured_value("O=C1Nc2ccccc2/C1=C1/Nc2ccccc2/C1=N\\O")
"loss of activity"
>>> measured_value("O=C1Nc2ccccc2/C1=C1/Nc2ccccc2C1=O [compound 1, Indirubin, reference compound]")
"loss of activity"
